Catalogue of pKd readings, one per entry.
target: T1, recombinant human DLL4 (C-terminally His-tagged extracellular domain, R&D Systems) (human, UniProt Q9NR61 25-522, biotinylated in the competition ELISA); assay: SPR (Biacore), recombinant human DLL4
T1 construct: also called rhDLL4; hDLL4
T1 sequence (Q9NR61 25-522): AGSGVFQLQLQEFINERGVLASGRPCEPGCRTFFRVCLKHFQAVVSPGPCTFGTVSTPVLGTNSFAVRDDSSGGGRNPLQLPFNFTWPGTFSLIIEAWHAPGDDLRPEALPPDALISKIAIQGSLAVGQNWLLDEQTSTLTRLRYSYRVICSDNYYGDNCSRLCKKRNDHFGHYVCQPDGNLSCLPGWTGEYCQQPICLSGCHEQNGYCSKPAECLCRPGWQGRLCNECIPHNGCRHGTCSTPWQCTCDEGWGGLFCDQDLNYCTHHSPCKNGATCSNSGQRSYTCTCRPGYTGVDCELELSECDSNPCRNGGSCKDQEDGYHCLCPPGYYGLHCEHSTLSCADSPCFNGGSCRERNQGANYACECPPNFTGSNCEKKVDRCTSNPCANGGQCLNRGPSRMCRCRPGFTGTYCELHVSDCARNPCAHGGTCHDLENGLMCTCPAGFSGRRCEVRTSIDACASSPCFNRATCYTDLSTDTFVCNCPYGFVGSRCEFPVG
pKd: −log10 of the molar value.
measured_metric: pKd

| binder | observed |
| --- | --- |
| DLLBII136C07 (VHH, not shown: small tags and cut ends) VHH: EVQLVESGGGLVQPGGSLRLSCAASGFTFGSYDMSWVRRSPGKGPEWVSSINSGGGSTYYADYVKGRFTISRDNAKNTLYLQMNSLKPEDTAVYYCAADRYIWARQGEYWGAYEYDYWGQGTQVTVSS | 9.00 |
| DLLBII129B05 (VHH, not shown: small tags and cut ends) VHH: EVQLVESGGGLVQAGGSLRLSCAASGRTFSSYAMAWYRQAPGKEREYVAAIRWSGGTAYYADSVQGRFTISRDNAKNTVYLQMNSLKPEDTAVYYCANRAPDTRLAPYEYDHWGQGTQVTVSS | 9.70 |
| DLLBII020 (VHH, not shown: small tags and cut ends) VHH: EVQLVESGGGLVQPGGSLRLSCAASGFTFGSYDMSWVRQSPGKGPEWVSSINSGGGSTYYADYVKGRFTISRDNAKNTLYLQMNSLRPEDTAVYYCAADRYIWARQGEYWGAYEYDYWGQGTLVTVSS | 7.57 |
| DLLBII036 (VHH, not shown: small tags and cut ends) VHH: EVQLVESGGGLVQPGGSLRLSCAASGFTFGSYDMSWVRRAPGKGPEWVSSISSGGGSTYYADYVKGRFTISRDNAKNTLYLQMNSLRPEDTAVYYCAADRYIWARQGEYWGAYEYDYWGQGTLVTVSS | 9.10 |
| DLLBII021 (VHH, not shown: small tags and cut ends) VHH: EVQLVESGGGLVQPGGSLRLSCAASGFTFGSYDMSWVRRAPGKGPEWVSSINSGGGSTYYADYVKGRFTISRDNAKNTLYLQMNSLRPEDTAVYYCAADRYIWARQGEYWGAYEYDYWGQGTLVTVSS | 9.00 |
| DLLBII018 (VHH, not shown: small tags and cut ends) VHH: EVQLVESGGGLVQPGGSLRLSCAASGRTFSSYAMAWYRQAPGKEREYVAAIRWSGGTAYYADSVKGRFTISRDNAKNTVYLQMNSLRPEDTAVYYCANRAPDTRLAPYEYDHWGQGTLVTVSS | 9.70 |
| DLLBII039 (VHH, not shown: small tags and cut ends) VHH: EVQLVESGGGLVQPGGSLRLSCAASGFTIGSYDMSWVRRAPGKGPEWVSSISSGGGSTYYADYVKGRFTISRDNAKNTLYLQMNSLRPEDTAVYYCAADRYIWARQGEYWGAYEYDYWGQGTLVTVSS | 8.74 |
| DLLBII017 (VHH, not shown: small tags and cut ends) VHH: EVQLVESGGGLVQPGGSLRLSCAASGRTFSSYAMAWYRQAPGKEREYVAAIRWSGGTAYYADSVQGRFTISRDNAKNTVYLQMNSLRPEDTAVYYCANRAPDTRLAPYEYDHWGQGTLVTVSS | 9.70 |
| DLLBII019 (VHH, not shown: small tags and cut ends) VHH: EVQLVESGGGLVQPGGSLRLSCAASGFTFGSYDMSWVRRSPGKGPEWVSSINSGGGSTYYADYVKGRFTISRDNAKNTLYLQMNSLRPEDTAVYYCAADRYIWARQGEYWGAYEYDYWGQGTLVTVSS | 8.89 |

Origin of measurements: patent US20140120095A1
